Assay: Inhibition of rat protein farnesyltransferase pretreated for 15 mins followed by dansyl-Gly-Cys-Val-Leu-Ser-OH substrate addition in presence of farnesyl pyrophosphate measured after 30 mins by fluorescence assay
Readout Name: IC50 (µM)
Report only the number, with the unit µM understood.

Before answering, review these 2 worked examples.
{"Structure String": "CSCC[C@H](NC(=O)c1ccc(NC(=O)[C@@H](N)CS)cc1)C(=O)O", "Unit Symbol": "µM", "IC50": 0.1}
{"Structure String": "COC1=CC(=O)[C@@]2(c3cc(=O)c4ccc(OC)cc4o3)[C@H](C[C@]3(C)[C@@H](C(=O)O)CC=C4[C@H]3CCCC4(C)C)C(C)=CC[C@H]2C1=O", "Unit Symbol": "µM", "IC50": 7.5}

For the next question, use this compound.
What measured IC50 goes with `COC1=CC(=O)[C@@]2(c3cc(=O)c4c(O)cc(O)cc4o3)[C@H](CC=C(C)[C@@H]2C[C@]2(C)[C@@H](C(=O)O)CC=C3[C@H]2CCCC3(C)C)C1=O` ?
5.1

---

Listing of entries alongside the reported GI50.
Test system: HepG2
Assay: Antiproliferative activity against human HepG2 cells measured after 72 hrs by SRB assay
Assay type: functional
Conditions: HepG2, 72 h

Before answering, review these 4 worked examples.
{"Structure String": "COC1=CC(=O)[C@@]2(c3cc(=O)c4c(O)cc(OC)cc4o3)[C@H](C[C@]3(C)[C@@H](C(=O)O)CC=C4[C@H]3CCCC4(C)C)C(C)=CC[C@H]2C1=O", "Result": "8.6 µM"}
{"Structure String": "COC1=CC(=O)[C@@]2(c3cc(=O)c4c(O)cc(O)cc4o3)[C@H](C[C@]3(C)[C@@H](C(=O)O)CC=C4[C@H]3CCCC4(C)C)C(C)=CC[C@H]2C1=O", "Result": "> 10 µM"}
{"Structure String": "COC1=CC(=O)[C@@]2(c3cc(=O)c4ccc(O)cc4o3)[C@H](C[C@]3(C)[C@@H](C(=O)O)CC=C4[C@H]3CCCC4(C)C)C(C)=CC[C@H]2C1=O", "Result": "> 10 µM"}
{"Structure String": "COC1=CC(=O)[C@@]2(c3cc(=O)c4ccc(OC)cc4o3)[C@H](C[C@]3(C)[C@@H](C(=O)O)CC=C4[C@H]3CCCC4(C)C)C(C)=CC[C@H]2C1=O", "Result": "> 10 µM"}

What measured GI50 goes with `COC1=CC(=O)[C@@]2(c3cc(=O)c4ccc(O)cc4o3)[C@H](CC=C(C)[C@@H]2C[C@]2(C)[C@@H](C(=O)O)CC=C3[C@H]2CCCC3(C)C)C1=O` ?
> 10 µM

What measured GI50 goes with `COC1=CC(=O)[C@@]2(c3cc(=O)c4c(O)cc(O)cc4o3)[C@H](CC=C(C)[C@@H]2C[C@]2(C)[C@@H](C(=O)O)CC=C3[C@H]2CCCC3(C)C)C1=O` ?
> 10 µM

---

Assay: Inhibition of porcine brain protein farnesyltransferase using p21 ras protein as substrate in presence of [3H]FPP after 1 hr by liquid scintillation counting method
Parameters: species or system Sus scrofa
Readout Name: IC50

What measured IC50 goes with `CSCC[C@H](NC(=O)c1ccc(NC(=O)[C@@H](N)CS)cc1)C(=O)O` ?
50 to 75 nM

---

Test: Inhibition of rat protein farnesyltransferase pretreated for 15 mins followed by dansyl-Gly-Cys-Val-Leu-Ser-OH substrate addition in presence of farnesyl pyrophosphate measured after 30 mins by fluorescence assay
Readout Name: IC50 (µM)
Report only the number, with the unit µM understood.

{"Structure String": "COC1=CC(=O)[C@@]2(c3cc(=O)c4c(O)cc(O)cc4o3)[C@H](C[C@]3(C)[C@@H](C(=O)O)CC=C4[C@H]3CCCC4(C)C)C(C)=CC[C@H]2C1=O", "Unit Symbol": "µM", "Numeric Readout": 8.5}

What measured IC50 goes with `COC1=CC(=O)[C@@]2(c3cc(=O)c4ccc(O)cc4o3)[C@H](C[C@]3(C)[C@@H](C(=O)O)CC=C4[C@H]3CCCC4(C)C)C(C)=CC[C@H]2C1=O` ?
47

What measured IC50 goes with `COC1=CC(=O)[C@@]2(c3cc(=O)c4ccc(O)cc4o3)[C@H](CC=C(C)[C@@H]2C[C@]2(C)[C@@H](C(=O)O)CC=C3[C@H]2CCCC3(C)C)C1=O` ?
27.9

What measured IC50 goes with `COC1=CC(=O)[C@@]2(c3cc(=O)c4c(O)cc(OC)cc4o3)[C@H](C[C@]3(C)[C@@H](C(=O)O)CC=C4[C@H]3CCCC4(C)C)C(C)=CC[C@H]2C1=O` ?
5
